# Tested on: SK-MEL-5
# Test: NCI tumour cell line growth inhibition, 48 h
Calls of active or inactive are those of the source. Rule as the data show it: active = GI50 up to about 1.1 µM and inactive = higher.
Measurement Name: GI50

> print(dat)
                                   compound  measurement.name             reported
1  N/C(=N\N/C=C1\C=Nc2cc(C(F)(F)F)ccc2C1=O)NO              GI50   > 10 µM (inactive)
2  CC1CC(N)=Nc2ccccc2N1Cc1ccccc1 (stereo not given)              GI50   14.7 µM (inactive)
3  C[N+](C)(CCNc1ccc(NCC[N+](C)(C)Cc2ccc([N+](=O)[O-])cc2)c2c1C(=O)c1ccccc1C2=O)Cc1ccc([N+](=O)[O-])cc1              GI50  > 100 µM (inactive)
4  N=C(N)N/N=C/c1c(-c2cc([N+](=O)[O-])c(Cl)cc2Cl)nc2n1CCS2              GI50   29.9 µM (inactive)
5  Cc1ccc(/N=N/C(C(=O)c2ccccc2)C(=O)c2ccccc2)cc1              GI50   17.7 µM (inactive)

* * *

# Test system: T47D
# Test: NCI tumour cell line growth inhibition, 48 h
Activity calls are given as the source filed them. No stated cut-off is given here; in the data, active = GI50 up to about 1.1 µM and inactive = higher.
Outcomes: active, inactive

Molecule	System Name	Class
CCC(=O)NC(Nc1cccc(F)c1)(C(F)(F)F)C(F)(F)F	T47D	inactive
CCOC(=O)c1c(-c2ccc(OC)cc2)c(C#N)c(=S)n(C2OC(COC(C)=O)C(OC(C)=O)C(OC(C)=O)C2OC(C)=O)c1-c1ccccc1 (stereo not given)	T47D	inactive
C[N+](C)(CCNc1ccc(NCC[N+](C)(C)Cc2ccc([N+](=O)[O-])cc2)c2c1C(=O)c1ccccc1C2=O)Cc1ccc([N+](=O)[O-])cc1	T47D	inactive
O=c1c2ncn(COCCCl)c2n(-c2ccccc2)c(=S)n1-c1ccccc1	T47D	inactive
COc1cc2cc(C(=O)N3CC(COS(C)(=O)=O)c4c3cc(N)c3ccccc43)[nH]c2c(OC)c1OC (stereo not given)	T47D	active
CCOC(=O)c1sc2nc(-c3ccccc3)nn2c1CBr	T47D	inactive
Cc1ccc2c(=O)c(-c3nnc(NC4CCCCC4)s3)c[nH]c2n1	T47D	inactive
O=C1CSC(/C=C/c2ccccc2)N1c1nc2cc3sc(N4C(=O)CSC4/C=C/c4ccccc4)nc3cc2s1 (stereo not given)	T47D	inactive
OC(C1CO1)C(O)C1CO1 (stereo not given)	T47D	inactive
Cc1[nH]c2ncn(Nc3ccccc3)c(=N)c2c1Cc1ccccc1	T47D	active
Cc1c(CCN2CCOCC2)c(N2CCOCC2)n2c(nc3ccccc32)c1C#N	T47D	inactive
N#Cc1c2ccc([N+](=O)[O-])cc2c(=O)n2c1sc1ccc(C(F)(F)F)cc12	T47D	inactive
C=C(C)[C@]12CC(C)C34OC(/C=C\C=C\CCCCCCCCC)(O[C@@H]1[C@@H]3[C@@H]1O[C@]1(CO)[C@@H](O)[C@]1(O)C(=O)C(C)=C[C@@H]41)O2 (stereo not given in full)	T47D	inactive
C=CCc1cc(C=C(C#N)C#N)cc(OC)c1O	T47D	inactive
COC(=O)C1(C(=O)OC)CC2=C(S(=O)(=O)c3ccccc3)C[C@H](S(=O)(=O)c3ccccc3)[C@H]2C1	T47D	inactive
